test system: PfAP2-G AP2 domain (GST-tagged); experiment: gcPBM binding intensity (ln(normalized median fluorescence intensity)); higher = stronger DNA binding
In all, about 25,000 sequences were measured (“ln(normalized median fluorescence intensity)”: median about 10, highest 2% from about 12 on). Many of the other results were omitted from the sample, so the highest values are more common in it than they were.
The sequences listed here are annotated with their gcPBM binding intensity (ln).
Hey, just send me the number, nothing else.

Here is how some sequences turned out for gcPBM binding intensity (ln).
| sequence_chain | subject_of_test | gcPBM binding intensity (ln) |
| --- | --- | --- |
| ATATATATTTTTATAACACACAATGATGTACATTAC [CACACA_site1076] | PfAP2-G AP2 domain (GST-tagged) | 11.3 |
| ATATAATTACATTGATGTACACGAAATGATTAACAT [XGTACX_site5183] | PfAP2-G AP2 domain (GST-tagged) | 11.7 |
| ATATATAATATATACACACACATGTATATATAAATA [CACACA_site1968] | PfAP2-G AP2 domain (GST-tagged) | 9.87 |
| TATTTGTGTATTTTTACACACATTAATATATTTATA [CACACA_site7562] | PfAP2-G AP2 domain (GST-tagged) | 9.9 |

Task: Given the entry TATATTAACAAAATGGTGCAATAATTTCTATATTAT [GTGCAC_site9857] , what gcPBM binding intensity (ln) was observed with PfAP2-G AP2 domain (GST-tagged)?
Output: 10.1

###

test system: PfAP2-G AP2 domain (GST-tagged); assay: gcPBM binding intensity (ln(normalized median fluorescence intensity)); higher = stronger DNA binding
The full ranking holds about 25,000 sequences; the median of “ln(normalized median fluorescence intensity)” is about 10, and the highest 2% start at about 12. For the sample, the highest values were picked, then their nearest neighbours and some sequences at random.
outcome_measure: gcPBM binding intensity (ln)
Hey, just send me the number, nothing else.

Here is how some sequences turned out for gcPBM binding intensity (ln).
| sequence_chain | gcPBM binding intensity (ln) |
| --- | --- |
| GTCGCCAAAAGGTGTACACATAATGCATTATCATAA [CACACA_site6112] | 11.7 |
| TATATATATATATATGTACACACATATATACCTTTC [CACACA_site8854] | 11.3 |
| TATCCATTATTTAAAAGTACAAAAAACGATTTACAC [XGTACX_site2979] | 11.3 |
| TATAAATAAAAGTGTACACACATTAAAATCAAACGT [CACACA_site5316] | 11.7 |
| CAAAGATAAAATGATGCACACAAAAGGGTGTAATAT [CACACA_site8499] | 10.2 |
| ACCAAATTATCAAATGGTACACATAAAATAATAAAA [XGTACX_site865] | 11.3 |
| TATATCTCTTTATTCACACATACGTTTTAAAATAAT [CACACA_site5542] | 10.2 |
| AAAAAAAAAAAAAGGTGTACAAGTATAATTACATAA [XGTACX_site534] | 11.5 |
| GAACCGTGCAAATGTTGTACACTTTAAAAATATTCT [XGTACX_site4488] | 11.6 |
| AAAACTATATTAATGTGTACACATCAAAATATTAAT [XGTACX_site6767] | 11.6 |

Task: Query (sequence): ATTTTATTTTTGTGCACACTGATAAATTGAAAAGAG [CACACA_site2948] ; field requested: gcPBM binding intensity (ln)
Output: 10.8

Task: Query (sequence): ATATAATAGAAGTGTACACACATATTTATGTCTGTA [CACACA_site3121] ; field requested: gcPBM binding intensity (ln)
Output: 11.5

Task: Query (sequence): AAAAAAAATATATAAACACACATATTTATATACTCA [CACACA_site4984] ; field requested: gcPBM binding intensity (ln)
Output: 9.66

###

The sequences listed here are annotated with their gcPBM binding intensity (ln).
tested on: PfAP2-G AP2 domain (GST-tagged); assay: gcPBM binding intensity (ln(normalized median fluorescence intensity)); higher = stronger DNA binding
Whole data set: some 25,000 sequences, median “ln(normalized median fluorescence intensity)” near 10, cut for the highest 2% near 12. Shown is part of a subset that was picked to be rich in the highest values.
Hey, just send me the number, nothing else.

| sequence_chain | outcome_measure | value_observed |
| --- | --- | --- |
| ATTCATTTTTTGGGGGGTACACCCTTTTAAACATTT [XGTACX_site4797] | gcPBM binding intensity (ln) | 11.8 |
| CATATTTTGAACTTCACACATATATATATATATATA [CACACA_site4228] | gcPBM binding intensity (ln) | 10.3 |
| ATGACTTACATATATAGTACTTTGTTTTGGAGTTGC [XGTACX_site94] | gcPBM binding intensity (ln) | 10.8 |

// switching to the query sequence
Task: Given the entry ATATATATATATATATGTACTAAATATTCATCCTTA [XGTACX_site6039] , what gcPBM binding intensity (ln) was observed with PfAP2-G AP2 domain (GST-tagged)?
Output: 11

###

test system: PfAP2-G AP2 domain (GST-tagged); experiment: gcPBM binding intensity (ln(normalized median fluorescence intensity)); higher = stronger DNA binding
The full ranking holds about 25,000 sequences; the median of “ln(normalized median fluorescence intensity)” is about 10, and the highest 2% start at about 12. Shown is part of a subset that was picked to be rich in the highest values.
outcome_measure: gcPBM binding intensity (ln)
Hey, just send me the number, nothing else.

Here is how some sequences turned out for gcPBM binding intensity (ln).
| sequence_chain | value_observed |
| --- | --- |
| TATGAGAACAAACATTGTACAATAAAAAGTAGATAT [XGTACX_site920] | 11.2 |
| ATAGAACAGAAAAGGCGTACAATAATATGTAAACAA [XGTACX_site2828] | 11.8 |
| AAAAAAAAAAAAAGTACACACATACATATAAATATA [CACACA_site8533] | 11.5 |

Task: Query (sequence): ATATATATATACATATGTACATATAAAATAATTTTG [XGTACX_site3731] ; field requested: gcPBM binding intensity (ln)
Output: 11.1

Task: Query (sequence): TTAAAAAAAAAAAAAAGTACATAAGTATATATAATA [XGTACX_site4295] ; field requested: gcPBM binding intensity (ln)
Output: 11.7

Task: Query (sequence): CAAAAATAAATATAAACACACAATAAATAAATAAAT [CACACA_site891] ; field requested: gcPBM binding intensity (ln)
Output: 9.74

Task: Query (sequence): ATATATATATAAAGGAGTACATACATTAAAAAAAAA [XGTACX_site1095] ; field requested: gcPBM binding intensity (ln)
Output: 11.7

Task: Query (sequence): GTATTATAAAAAGGAAGTACATATATACATATTATA [XGTACX_site1271] ; field requested: gcPBM binding intensity (ln)
Output: 11.3

Task: Query (sequence): TTCAGTGTATACATATGTACATATATATATATATAT [XGTACX_site1621] ; field requested: gcPBM binding intensity (ln)
Output: 11.3

Task: Query (sequence): TATATATAAAAAAAAAGTACATATAATATAATATTT [XGTACX_site7902] ; field requested: gcPBM binding intensity (ln)
Output: 11.5

Task: Query (sequence): AAAAATATATAATAAAGTACACATAAATGAATAAAT [XGTACX_site329] ; field requested: gcPBM binding intensity (ln)
Output: 11.5

Task: Query (sequence): TATAAAAATAAAAAAAGTACACATAAAAATATATAT [XGTACX_site5189] ; field requested: gcPBM binding intensity (ln)
Output: 11.5

Task: Query (sequence): TACATAAACATTTATACACACATTATATATACATAT [CACACA_site8028] ; field requested: gcPBM binding intensity (ln)
Output: 10.1

Task: Query (sequence): AAAAAAAAAATTGAAAGTACACAAATGGGGTATTAT [XGTACX_site3960] ; field requested: gcPBM binding intensity (ln)
Output: 11.5

Task: Query (sequence): AGTAGATATAAAAGGAGTACACATATATATATAAAT [XGTACX_site4375] ; field requested: gcPBM binding intensity (ln)
Output: 11.6

Task: Query (sequence): TGTGTAGCTAGGGGGTTGCTAATTTTTGTTTTGACC [CACACA_negctrl_site634] ; field requested: gcPBM binding intensity (ln)
Output: 10.9

Task: Query (sequence): AATGAATATTAAAGGAGTACACATAATAAGTAAGAA [XGTACX_site7354] ; field requested: gcPBM binding intensity (ln)
Output: 11.7

Task: Query (sequence): TATATATATATATGGGGTACAAATGGTCAGTATTAT [XGTACX_site1223] ; field requested: gcPBM binding intensity (ln)
Output: 11.7

Task: Query (sequence): AAATATATATATATATATATATATATATATATATAT [CACACA_negctrl_site677] ; field requested: gcPBM binding intensity (ln)
Output: 10
